Target: Muscarinic acetylcholine receptor M2 (Rattus norvegicus, UniProt P10980)
Sequence (P10980 whole entry): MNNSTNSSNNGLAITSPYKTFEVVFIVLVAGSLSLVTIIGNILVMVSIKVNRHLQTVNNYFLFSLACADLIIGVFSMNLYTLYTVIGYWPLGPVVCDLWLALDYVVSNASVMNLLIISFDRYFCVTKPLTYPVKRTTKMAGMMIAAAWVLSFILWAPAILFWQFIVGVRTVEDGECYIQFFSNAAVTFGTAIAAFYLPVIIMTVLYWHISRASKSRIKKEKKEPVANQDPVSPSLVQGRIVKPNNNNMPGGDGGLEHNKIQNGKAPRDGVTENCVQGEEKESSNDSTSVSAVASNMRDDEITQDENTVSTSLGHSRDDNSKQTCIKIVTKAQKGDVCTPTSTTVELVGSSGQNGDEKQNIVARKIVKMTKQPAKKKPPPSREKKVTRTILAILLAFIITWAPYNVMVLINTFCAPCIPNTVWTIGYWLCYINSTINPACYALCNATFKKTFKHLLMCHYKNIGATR
experimental readout: Ki (µM)
Please respond with the number in µM and leave the unit unwritten.

Qu. Give the measured Ki for Fc1ccc(N2CCN(CCC3OCCc4ccccc43)CC2)cc1 (stereo unspecified)
Ans. 0.678
